Target: GABA-A receptor; anion channel (Bos taurus) (UniProt P10063+P08220+P20237+P08219+P10064+P22300)
Assay: Relative binding to GABA-A receptor in the presence and absence of GABA (GABA shift), Ki(-GABA)/Ki(+GABA)
Format: protein-complex assay
Measured endpoint: Ratio
# respond with the number and nothing more

q: For the compound shown here, Oc1c(-c2ccsc2)cnc2c(-c3ccccn3)cnn12 , give the reported Ratio.
a: 1.1

q: Cc1cccc(-c2cnn3c(O)c(-c4ccsc4)cnc23)c1 ?
a: 2

q: Oc1c(-c2ccsc2)cnc2c(-c3cccnc3)cnn12 ?
a: 1.51

q: Oc1c(-c2ccsc2)cnc2c(-c3ccsc3)cnn12 ?
a: 1.3

q: Oc1c(-c2ccsc2)cnc2c(-c3ccccc3)cnn12 ?
a: 1.71

q: Oc1c(-c2ccsc2)cnc2c(-c3cccc4ccccc34)cnn12 ?
a: 1.02

q: Oc1c(-c2ccsc2)cnc2c(-c3cccc(F)c3)cnn12 ?
a: 1.2

q: COc1cccc(-c2cnn3c(O)c(-c4ccsc4)cnc23)c1 ?
a: 1.25

q: Oc1c(-c2ccsc2)cnc2c(-c3cccc(Br)c3)cnn12 ?
a: 1.72

q: Oc1c(-c2ccsc2)cnc2c(-c3ccc(F)cc3)cnn12 ?
a: 0.9

q: Oc1c(-c2ccsc2)cnc2c(-c3cccc(C(F)(F)F)c3)cnn12 ?
a: 2
